subject-of-test: Pepsin A (Sus scrofa) (UniProt P00791)
Sequence (P00791 60-385 limits assumed): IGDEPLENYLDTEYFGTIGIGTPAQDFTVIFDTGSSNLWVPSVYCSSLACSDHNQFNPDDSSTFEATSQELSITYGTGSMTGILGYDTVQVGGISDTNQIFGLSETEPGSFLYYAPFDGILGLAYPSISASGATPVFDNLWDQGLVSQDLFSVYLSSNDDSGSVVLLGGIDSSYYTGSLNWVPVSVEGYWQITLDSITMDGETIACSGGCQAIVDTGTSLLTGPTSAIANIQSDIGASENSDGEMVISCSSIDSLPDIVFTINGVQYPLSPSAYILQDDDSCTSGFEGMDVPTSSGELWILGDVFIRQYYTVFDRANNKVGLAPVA
test-summary: Percentage inhibition against pepsin; NI=no inhibition at 1.0x10E-5M

{"columns": ["input-smiles", "subject-of-test", "inhibition"],
 "data": [
  ["CCOC(=O)N[C@@H](Cc1ccccc1)C(=O)N[C@@H](Cc1c[nH]cn1)C(=O)N[C@@H](CC1CCCCC1)[C@@H](O)CCS(=O)(=O)C(C)C", "Pepsin A (Sus scrofa) (UniProt P00791)", "No inhibition"],
  ["CC(C)S(=O)(=O)CC[C@H](O)[C@H](CC1CCCCC1)NC(=O)[C@H](C)NC(=O)[C@H](Cc1ccccc1)NC(=O)OC(C)(C)C", "Pepsin A (Sus scrofa) (UniProt P00791)", "No inhibition"],
  ["CCS(=O)(=O)CC[C@H](O)[C@H](CC1CCCCC1)NC(=O)[C@H](C)NC(=O)[C@H](Cc1ccccc1)NC(=O)OC(C)(C)C", "Pepsin A (Sus scrofa) (UniProt P00791)", "No inhibition"]
]}

====

subject-of-test: Renin (Homo sapiens)
Sequence (P00797 whole entry): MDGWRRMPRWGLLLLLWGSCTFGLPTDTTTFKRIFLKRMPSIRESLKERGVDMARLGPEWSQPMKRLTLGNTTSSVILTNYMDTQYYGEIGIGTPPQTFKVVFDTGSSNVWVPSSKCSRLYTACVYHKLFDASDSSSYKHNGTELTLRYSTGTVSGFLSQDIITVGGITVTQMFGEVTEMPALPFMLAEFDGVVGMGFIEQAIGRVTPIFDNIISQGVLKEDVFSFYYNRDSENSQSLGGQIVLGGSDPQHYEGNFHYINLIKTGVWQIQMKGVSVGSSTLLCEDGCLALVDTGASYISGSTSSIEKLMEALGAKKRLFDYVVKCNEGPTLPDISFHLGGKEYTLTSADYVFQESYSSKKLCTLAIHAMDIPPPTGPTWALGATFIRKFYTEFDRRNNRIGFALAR
test-summary: Inhibition against purified human renin
Please assign no whenever IC50 is at or above 3 µM, and yes whenever it is below.

{"columns": ["compound", "assigned-label"],
 "data": [
  ["CC(C)CCC(O)CC[C@H](O)[C@H](CC(C)C)NC(=O)[C@H](C)NC(=O)[C@H](Cc1ccccc1)NC(=O)OC(C)(C)C (some centres not stated)", "no"],
  ["CC(C)CCC(=O)CC[C@H](O)[C@H](CC(C)C)NC(=O)[C@H](C)NC(=O)[C@H](Cc1ccccc1)NC(=O)OC(C)(C)C", "yes"],
  ["CC(C)C[C@H](NC(=O)[C@H](C)NC(=O)[C@H](Cc1ccccc1)NC(=O)OC(C)(C)C)[C@@H](O)CCS(=O)(=O)CCc1ccccc1", "yes"],
  ["CC(C)CSCC[C@H](O)[C@H](CC(C)C)NC(=O)[C@H](C)NC(=O)[C@H](Cc1ccccc1)NC(=O)OC(C)(C)C", "no"],
  ["CCS(=O)(=O)CC[C@H](O)[C@H](CC1CCCCC1)NC(=O)[C@H](Cc1cnc[nH]1)NC(=O)[C@H](Cc1ccccc1)NC(=O)OC(C)(C)C", "yes"],
  ["CC(C)CC[S+]([O-])CC[C@H](O)[C@H](CC(C)C)NC(=O)[C@H](C)NC(=O)[C@H](Cc1ccccc1)NC(=O)OC(C)(C)C (some centres not stated)", "no"],
  ["CC(C)C[C@H](NC(=O)[C@H](C)NC(=O)[C@H](Cc1ccccc1)NC(=O)OC(C)(C)C)[C@@H](O)CCS(=O)(=O)CC(C)C", "no"]
]}

Value source: ChEMBL document CHEMBL1123605
